Substrate: PET
procedure-text: Proxy for plastic degradation [HPLC-UV]
settings: pH 9; 40 °C; 24 h
measured-parameter: Proxy for plastic degradation (µM)

{"columns": ["protein", "measurement-unit", "numeric-result"],
 "data": [
  ["unnamed (protein) MNFPRASRLMQAAVLGGLMAVSAAATAQTNPYARGPNPTAASLEASAGPFTVRSFTVSRPSGYGAGTVYYPTNAGGTVGAIAIVPGYTARQSSIKWWGPRLASHGFVVITIDTNSTLDQPSSRSSQQMAALRQVASLNGTSSSPIYGKVDTARMGVMGWSMGGGGSLISAANNPSLKAAAPQAPWVSSTNFSSVTVPTLIFACENDSIAPVNSSALPIYDSMSRNAKQFLEINGGSHSCANSGNSNQALIGKKGVAWMKRFMDNDTRYSTFACENPNSTRVSDFRTANCS", "µM", 1.9]
]}
